- Tested on: LANA (ORF73) N-terminal peptide binding to nucleosomes, Human herpesvirus 8
- METHOD: inhibitors of KSHV LANA-nucleosome binding, primary screen, biochemical, fluorescence polarization, FITC-LANA1-23, chicken nucleosomes (AID 720717)
- RUN_PARAMETERS: FITC-LANA1-23 / chicken nucleosome fluorescence polarization; hits give low values
The campaign covered roughly 51,000 compounds. About 150 (0.29%) were called active. This excerpt belongs to a sample that is enriched for actives.
METRIC_NAME: z-score
Response field accepts a number only; no unit should be typed.

Reported z-score ( `CCOC(=O)c1sc2nc3c(cc2c1N)CN(C)CC3` ) = 0.365

---

- Tested on: LANA (ORF73) N-terminal peptide binding to nucleosomes, Human herpesvirus 8
- METHOD: inhibitors of KSHV LANA-nucleosome binding, primary screen, biochemical, fluorescence polarization, FITC-LANA1-23, chicken nucleosomes (AID 720717)
- RUN_PARAMETERS: FITC-LANA1-23 / chicken nucleosome fluorescence polarization
About 150 (0.29%) of roughly 51,000 compounds were called active.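 How the source made its calls: active means both repeat wells score below -2 in polarization z-score versus plate sample wells, excluding overly bright wells; inactive means the rest.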 Shown is part of a subset that was picked to be rich in actives.
Parameter call: string, one of true (1) = active, false (0) = inactive

Use these answered entries as a reference point.
| SUBSTANCE_SMILES | LABEL_CLASS |
| --- | --- |
| CC1(C)CC(Nc2nc(Cl)c(C#N)c(Cl)c2Cl)CC(C)(C)N1 | false (0) |
| O=C(c1ccccc1)c1cc(Cl)ccc1NC(=O)C(F)(F)F | false (0) |

(Q) Given `CN1CCc2c(c(S)[nH]c(=S)c2C#N)C1` , state the outcome it received in this test.
(A) true (1)
